Target: SIGMA RECEPTOR (Cavia porcellus, UniProt Q60492)
Construct: Two milliter aliquots of the brain membrane preparation, containing 1.7 mg of protein; tissue Pel-Freeze (Rogers, Arkansas); host or cells: guinea-pig brains plus cerebella, membranes
Sequence (Q60492 whole entry): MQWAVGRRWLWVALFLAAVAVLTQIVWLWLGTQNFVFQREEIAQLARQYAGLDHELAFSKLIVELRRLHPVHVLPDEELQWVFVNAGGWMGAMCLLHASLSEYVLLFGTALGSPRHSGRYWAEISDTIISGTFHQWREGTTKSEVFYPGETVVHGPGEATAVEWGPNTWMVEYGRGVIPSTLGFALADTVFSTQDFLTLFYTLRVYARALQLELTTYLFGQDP
Test: Sigma receptor binding assay ([3H]-d-SKF-10,047 displacement, brain membranes)
Design: species or system guinea-pig (male Hartley)
Conditions: Table 2, aryl ring substituents; read-out: SIGMA RECEPTOR IC50
value-kind: log10(IC50) (log10 of the value in nM)
Heads up: the numbers are on a log10 scale; they represent IC50 in nM.

In plain terms, c1ccc(C2(CN3CCCC3)CCCCC2)cc1 has a documented log10(IC50) of 3.68

Batch request: log10(IC50) for each of the following molecules.
1. CN(C)CC1(c2cccc(O)c2)CCCCC1
2. O=[N+]([O-])c1ccc(C2(CN3CCCCC3)CCCCC2)cc1
3. COc1ccc(C2(CN3CCCC3)CCCCC2)cc1OC
4. COc1ccc(C2(CN(C)C)CCCCC2)cc1OC
5. Clc1cccc(C2(CN3CCCC3)CCCCC2)c1

4.00
2.40
3.12
3.96
2.39

Field: log10(IC50). Fill in for each record below.
1. COc1ccc(C2(CN3CCCC3)CCCCC2)cc1
2. Oc1ccc(C2(CN3CCCC3)CCCCC2)cc1
3. COc1ccc(C2(CN3CCCCC3)CCCCC2)cc1OC
4. Oc1cccc(C2(CN3CCCC3)CCCCC2)c1
5. Cc1ccc(C2(CN(C)C)CCCCC2)cc1

1: 2.74; 2: 3.24; 3: 2.59; 4: 3.03; 5: 2.73

Hi team, please reply with log10(IC50) for each item in this list.
1. COc1cccc(C2(CN(C)C)CCCCC2)c1
2. COc1cccc(C2(CN3CCCC3)CCCCC2)c1

1: 3.45; 2: 3.08

Sourced from patent US5086054A
